run.description: A CellTox Green Cytotoxicity Assay to monitor cytotoxicity in HepG2 cells - 16 hour (AID 1224876); also: nearly all actives have a fitted effect of over 45% in size
conditions.used: CellTox Green fluorescence; series mostly up to 76.8 µM
Inconclusive results are not listed. Activity calls are given as the source filed them. Calls follow the shape of the dose curve; as a rule, active = well fitted activation curve with a large enough effect in the repeat runs; inconclusive = weak or mixed curves; inactive = flat fitted curve, though single readings scatter.

| compound | cytotoxicity increase |
| --- | --- |
| CC(C)NC(=O)NC(C)C | inactive |
| COC(C)(C)CCCC(C)CC=O (centres undefined) | inactive |
| CN1N=C(C(N)=O)CCC1=O | inactive |
| CC1(C)CO[C@@H](CC(=O)O)CN1 | inactive |
| C[C@@H]1CCN(C(=O)[C@H](CCCN=C(N)N)NS(=O)(=O)c2cccc3c2NC[C@H](C)C3)[C@@H](C(=O)O)C1 | inactive |
| CCCCCCCCCCCC | inactive |
| NC(=O)c1cn(Cc2c(F)cccc2F)nn1 | inactive |
| COc1c(N2C[C@@H]3CCCN[C@@H]3C2)c(F)cc2c(=O)c(C(=O)O)cn(C3CC3)c12 | inactive |
| Nc1c[n+](N2CCOCC2)no1 | inactive |
| CCO/C([O-])=N/c1c[n+](N2CCOCC2)no1 | inactive |
| N=C(N)c1ccc(OCCCOc2ccc(C(=N)N)cc2)cc1 | inactive |
| CC/C=C\CC/C=C/C(OCC)OCC | inactive |
| CCOC(=O)c1cccc(N)c1 | inactive |
| C=CCS(=O)(=O)O | inactive |
